B1: NLV2 TCR alpha chain (CDR3α only) (parent)
chain: AGPMKTSYDKVI
partner: NLVGMVATV

# Variants of: B1
# assay_summary: T-Switch: Jurkat TCRβ−/− cells expressing a CDR3 saturation-mutagenesis library, stained with two peptide-HLA-A*02:01 tetramers (original and novel peptide) plus anti-CD3, FACS-sorted into four gates, gDNA sequenced
# condition_set: with HLA-A*02:01 with peptide … (NLV 2-2, the original bait), tetramers 1 µg/mL, 30 min on ice, DP and SW gates expanded about 10 days between rounds ('two to three rounds of selection' in the Methods), gate SP: higher = more of the variant in the gate that binds the original peptide and not the novel one = retained original binding. Fold enrichment of the CDR3 variant in one FACS gate of a two-tetra, unresolved parent, parent is a CDR3 fragment, scale: fold enrichment, numbering: sequential-on-construct, sequence …
metric: enrichment
Give a plain numeric answer without units written out.

Quick note, enrichment for […] (CDR3 as printed); V11K derived by comparing it with the table's wild-type CDR3 AGPMKTSYDKVI landed at 0

Quick note, enrichment for […] (CDR3 as printed); V11Y derived by comparing it with the table's wild-type CDR3 AGPMKTSYDKVI landed at 0

Quick note, enrichment for […] (CDR3 as printed); A1G derived by comparing it with the table's wild-type CDR3 AGPMKTSYDKVI landed at 0

Quick note, enrichment for […] (CDR3 as printed); V11I derived by comparing it with the table's wild-type CDR3 AGPMKTSYDKVI landed at 5

Quick note, enrichment for […] (CDR3 as printed); G2S derived by comparing it with the table's wild-type CDR3 AGPMKTSYDKVI landed at 0

Quick note, enrichment for […] (CDR3 as printed); S7F derived by comparing it with the table's wild-type CDR3 AGPMKTSYDKVI landed at 0
